Assign LD50 to each entry below.
# Protocol summary: The compound was tested for acute toxicity when given intraperitoneally in mouse.
# Type: organism-based
# Settings: in vivo, ip

Guide cases for LD50, answers given:
Molecule	LD50
CC(=O)/C(=C\c1ccccc1)Oc1ccc(OCC(C)N(C)C)cc1 (configuration not stated)	100 mg/kg
CC(=O)/C(=C\c1ccccc1)Oc1ccccc1OCCN1CCOCC1	180 mg/kg
C/C=C(/Oc1ccccc1OCCN(CC)CC)C(C)=O	80 mg/kg

State recorded LD50 for all listed molecules.
1. CCN(CC)CCOc1ccc(O/C(=C/c2ccccc2)C(C)=O)cc1
2. CCN(CC)CCCOc1ccccc1O/C(=C/c1ccccc1)C(C)=O

Result:
163 mg/kg
95 mg/kg

The following molecules each have a reported value; give each one's LD50.
1. CC(=O)/C(=C\c1ccccc1)Oc1ccccc1OCCCN(C(C)C)C(C)C
2. CC(=O)/C(=C\c1ccccc1)Oc1ccccc1OCC(C)N(C)C (configuration not stated)

Result:
["60 mg/kg", "45 mg/kg"]

====

# Protocol summary: The compound was tested for acute toxicity when given intravenously in rat
# Assay type: organism-based
# Settings: in vivo, iv
Measurement kind: LD50 (mg/kg)
Answers are plain numbers, in mg/kg.

Solved entries (count: 5):
Compound	Endpoint unit	LD50
CC(=O)/C(=C\c1ccccc1)Oc1ccccc1OCCN1CCCCC1	mg/kg	11.2
CCN(CC)CCOc1ccccc1OC(Cc1ccccc1)C(C)=O (stereo not drawn)	mg/kg	11.7
CC(=O)/C(=C\c1ccccc1)Oc1ccccc1OCCCN1CCN(C)CC1	mg/kg	23.9
CC(=O)/C(=C\c1ccccc1)Oc1ccccc1OCCN1CCOCC1	mg/kg	30
CC(=O)/C(=C\c1ccccc1)Oc1ccccc1OCCCN(C(C)C)C(C)C	mg/kg	11.4

Parameters: items (list). Returns: LD50 for each item.
1. CC(=O)/C(=C\c1ccccc1)Oc1ccccc1OCCCNC(C)(C)C
2. CC(=O)/C(=C\c1ccccc1)Oc1ccccc1OCCN(C(C)C)C(C)C
3. CC(=O)/C(=C\c1ccccc1)Oc1ccccc1OCC(O)CNC(C)(C)C (stereo not drawn)
4. CCN(CC)CCOc1ccccc1O/C(=C/c1ccccc1)C(C)=O
5. CCN(CC)CCCOc1ccccc1O/C(=C/c1ccccc1)C(C)=O
6. CCN(CC)CCNC(=O)c1ccc(N)cc1 [PROCAINAMIDE]
7. CC(=O)/C(=C\c1ccccc1)Oc1ccccc1OCCCN1CCCCC1

Result:
1. 12.5
2. 10.1
3. 17
4. 8.9
5. 11.1
6. 121
7. 6.5

Q: So what does the record say about LD50 for `CC(=O)/C(=C\c1ccccc1)Oc1ccccc1OCCCN(C)C` ?
Result: 13.5

====

# Protocol summary: The compound was tested for acute toxicity when given intraperitoneally in mouse.
# Type: organism-based
# Settings: in vivo, ip
Please note: LD50 exactly at 100 mg/kg is label 0. Only values below 100 mg/kg get label 1.

Examples with answers:
Compound	Class label
CC(=O)/C(=C\c1ccccc1)Oc1ccccc1OCCCN1CCCCC1	label 1
CC(=O)/C(=C\c1ccccc1)Oc1ccccc1OCC(O)CNC(C)(C)C (stereo unspecified)	label 1
CCN(CC)CCOc1ccccc1O/C(=C/c1ccccc1)C(C)=O [ZOCAINONE]	label 1
CC(=O)/C(=C\c1ccccc1)Oc1ccccc1OCCCN1CCN(C)CC1	label 0
CC(=O)/C(=C\c1ccccc1)Oc1cc(Cl)ccc1OCCN(C(C)C)C(C)C	label 0
CC(=O)/C(=C\c1ccccc1)Oc1ccccc1OCCCN(C)C	label 0
CCN(CC)CCOc1ccccc1O/C(=C/c1ccccc1)C(C)O (stereo unspecified)	label 0
CC(=O)/C(=C\c1ccccc1)Oc1ccccc1OCC(O)CN1CCN(C)CC1 (stereo unspecified)	label 0
CCN(CC)CCOc1ccc(Cl)cc1O/C(=C/c1ccccc1)C(C)=O	label 0
CC(=O)/C(=C\c1ccccc1)Oc1cc(Cl)ccc1OCCN1CCCCC1	label 0

Q: Bench note: check whether `CC(=O)/C(=C\c1ccccc1)Oc1ccccc1OCCCNC(C)(C)C` shows LD50 below 100 mg/kg
Result: label 1
